Target: nucleosome: histone octamer with Alexa Fluor 488 on histone H4 E63C assembled onto a 165 bp DNA (human)
Experiment: fluorescence polarisation; 10 nM Alexa Fluor 488-labeled nucleosome (165 bp DNA), SMARCAD1 titrated 0-5 μM; 2 mM DTT, 10% glycerol, 50 mM HEPES pH 7.5, 0.01% CHAPS, 0.01% NP-40; room temperature, 30 min; hyperbolic fit
OBSERVED_PROPERTY: Kd
Please answer in the form of a number followed by its unit of measurement.

May I ask what Kd has been recorded for dephosphorylated Δ350 SMARCAD1 (from UniProt Q9H4L7 351-1026) (domain or fragment) ? 114 nM
